Reference source for all entries: patent US20240277663A1

- system-tested: HDAC10 (Homo sapiens, UniProt Q969S8)
- Sequence (Q969S8 1-669): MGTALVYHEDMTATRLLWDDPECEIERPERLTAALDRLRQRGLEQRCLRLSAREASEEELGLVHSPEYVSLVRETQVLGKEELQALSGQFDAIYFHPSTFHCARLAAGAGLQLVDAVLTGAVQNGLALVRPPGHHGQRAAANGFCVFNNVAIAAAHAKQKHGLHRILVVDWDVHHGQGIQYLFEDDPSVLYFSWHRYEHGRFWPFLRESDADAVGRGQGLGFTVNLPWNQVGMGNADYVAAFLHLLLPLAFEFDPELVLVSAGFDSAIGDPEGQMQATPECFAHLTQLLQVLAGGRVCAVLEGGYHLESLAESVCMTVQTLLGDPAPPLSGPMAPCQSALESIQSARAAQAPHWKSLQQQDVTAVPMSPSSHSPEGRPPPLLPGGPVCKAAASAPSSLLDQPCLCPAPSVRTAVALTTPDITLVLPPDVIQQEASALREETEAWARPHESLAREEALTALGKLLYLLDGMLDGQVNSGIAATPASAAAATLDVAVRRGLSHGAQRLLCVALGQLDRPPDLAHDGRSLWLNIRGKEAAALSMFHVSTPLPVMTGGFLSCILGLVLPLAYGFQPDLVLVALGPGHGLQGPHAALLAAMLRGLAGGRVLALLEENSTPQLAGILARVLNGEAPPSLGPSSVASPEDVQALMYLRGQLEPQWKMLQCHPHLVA

# compound, system-tested, IC50
records = [
    ("Nc1cc(F)ccc1NC(=O)c1ccc(CNC(=O)/C=C/c2cccnc2)cc1 [Tucidinostat, reference compound]", "HDAC10 (Homo sapiens, UniProt Q969S8)", "> 3 µM"),
]

* * *

- system-tested: HDAC7 (Homo sapiens, UniProt Q8WUI4)
- Sequence (Q8WUI4 1-952): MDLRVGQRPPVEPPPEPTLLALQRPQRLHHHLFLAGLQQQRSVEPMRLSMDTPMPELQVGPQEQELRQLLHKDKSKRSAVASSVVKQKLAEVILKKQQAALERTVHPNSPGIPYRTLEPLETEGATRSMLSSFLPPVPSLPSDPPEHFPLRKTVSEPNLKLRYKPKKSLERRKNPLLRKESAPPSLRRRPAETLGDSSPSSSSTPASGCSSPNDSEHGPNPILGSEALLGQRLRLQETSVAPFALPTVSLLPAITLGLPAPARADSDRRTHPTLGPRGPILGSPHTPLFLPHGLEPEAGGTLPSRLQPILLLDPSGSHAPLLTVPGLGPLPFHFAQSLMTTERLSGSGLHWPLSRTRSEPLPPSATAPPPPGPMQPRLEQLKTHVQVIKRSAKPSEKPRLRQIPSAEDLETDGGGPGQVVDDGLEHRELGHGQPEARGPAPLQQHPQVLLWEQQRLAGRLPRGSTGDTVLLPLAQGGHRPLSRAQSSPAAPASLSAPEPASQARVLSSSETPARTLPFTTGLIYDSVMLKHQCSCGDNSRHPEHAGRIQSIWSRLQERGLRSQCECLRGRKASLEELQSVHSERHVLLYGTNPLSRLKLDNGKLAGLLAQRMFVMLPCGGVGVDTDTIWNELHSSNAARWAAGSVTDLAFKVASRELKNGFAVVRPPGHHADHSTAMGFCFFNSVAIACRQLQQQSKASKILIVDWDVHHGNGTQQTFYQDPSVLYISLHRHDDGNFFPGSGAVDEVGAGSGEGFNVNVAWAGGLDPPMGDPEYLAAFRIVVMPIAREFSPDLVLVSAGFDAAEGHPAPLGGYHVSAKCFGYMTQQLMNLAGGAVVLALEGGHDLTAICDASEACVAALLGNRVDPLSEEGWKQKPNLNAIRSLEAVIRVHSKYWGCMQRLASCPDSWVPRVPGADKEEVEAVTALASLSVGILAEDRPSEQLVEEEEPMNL

# compound, IC50
data = [
    ("Nc1cc(F)ccc1NC(=O)c1ccc(CNC(=O)/C=C/c2cccnc2)cc1 [Tucidinostat, reference compound]", "> 3 µM"),
]
